Tested on: Lolium perenne (LOLPE)
Experiment: Glasshouse herbicide test, pre- and post-emergence
Assay type: in vivo
Conditions: post-emergence, 250 g/h, evaluated after 13 days, five-point scale
Quantity Measured: percentage damage caused to the plant, LOLPE POST

Reference set, count: 2
Compound | Test Value
CC#Cc1cc(C)c(C2C(=O)CC3(CCC(NC(=O)C(C)(C)C)CC3)CC2=O)c(C)c1 (stereo not drawn) [Compound 2.005] | 5 (5=80-100%)
CC#Cc1cc(C)c(C2C(=O)CC3(CCC(C(=O)NCCO)CC3)CC2=O)c(C)c1 (stereo not drawn) [Compound 1.012] | 4 (4=60-79%)

We now examine a further compound.
State the measured percentage damage caused to the plant, LOLPE POST (Lolium perenne (LOLPE)) of CC#Cc1cc(C)c(C2C(=O)CC3(CCC(NC(=O)NC(=O)C(C)(C)C)CC3)CC2=O)c(C)c1 (stereo not drawn) [Compound 2.022]
5 (5=80-100%)
